Test: Pharmacokinetics and brain distribution after oral administration
Format: in vivo, C57BL/6 mice
Conditions: male, C57BL/6, mouse, brain / plasma, po, 50 mg/kg, oral, mice; plasma concentration range 0.63–66.9 ng/mL; read-out: mean brain DTMB concentration ratio over the plasma DTMB ([Brain]/[Plasma])
measure_name: Kp
API doc: respond with a numeric literal and nothing else, no unit.

Looking up COc1ccc(-c2cc(=O)oc3c(C)c(OC(=O)[C@H](Cc4c[nH]c5ccccc45)NC(=O)OC(C)(C)C)ccc23)cc1 [DTMB] , I found its Kp recorded as 2.69

###

Test: Pharmacokinetics and brain distribution after oral administration
Format: in vivo, C57BL/6 mice
Details: male, C57BL/6, mouse; Brain; 50 mg/kg oral, mice
Procedure: To investigate the pharmacokinetics and brain distribution of DTMB, fifty-six male C57BL/6 mice (22–26 g) were fasted with water ad libitum for 16 h before oral administration of DTMB and randomly divided into seven groups (n=8 per each sampling time point). […] Concentrations of DTMB in plasma and brain homogenate samples were analyzed using an Agilent 6470 triple quadrupole liquid chromatography-mass spectrometry (LC–MS/MS) system (Agilent, Wilmington, DE, USA). […]
measure_name: Tmax (min)
Field format: number, assumed min, no unit text.

Looking up COc1ccc(-c2cc(=O)oc3c(C)c(OC(=O)[C@H](Cc4c[nH]c5ccccc45)NC(=O)OC(C)(C)C)ccc23)cc1 [DTMB] , I found its Tmax recorded as 56.4

###

Assay: Pharmacokinetics and brain distribution after oral administration
Format: in vivo, C57BL/6 mice
Conditions: male, C57BL/6, mouse; Plasma; 50 mg/kg oral, mice
measure_name: Tmax (min)
Field format: number, assumed min, no unit text.

Looking up `COc1ccc(-c2cc(=O)oc3c(C)c(OC(=O)[C@H](Cc4c[nH]c5ccccc45)NC(=O)OC(C)(C)C)ccc23)cc1` , I found its Tmax recorded as 45

###

Assay: Pharmacokinetics and brain distribution after oral administration
Assay type: in vivo, C57BL/6 mice
Details: male, C57BL/6, mouse, brain / plasma, po, 50 mg/kg, printed in the Brain column; 50 mg/kg oral, mice; read-out: AUC ratio
measure_name: Kp
API doc: respond with a numeric literal and nothing else, no unit.

Looking up COc1ccc(-c2cc(=O)oc3c(C)c(OC(=O)[C@H](Cc4c[nH]c5ccccc45)NC(=O)OC(C)(C)C)ccc23)cc1 [DTMB] , I found its Kp recorded as 3.53
